# Tested on: Staphylococcus aureus MW2 (mecA+)
# Protocol Summary: normalized DsRed fluorescence (growth of mecA+ strain) (fraction of control range); higher = more growth of mecA+ strain
# Condition Label: compound concentration: 150 uM; cefoxitin: subinhibitory; fluorescent label: DsRed
Where a name gives a salt, the structure may show the parent alone.
Reported Metric: normalized DsRed fluorescence
Numbers only.

Consider the following illustrative entries.
CCN(CC)CC(=O)Nc1c(C)cccc1C :: 0.76
CC1(C)S[C@@H]2[C@H](NC(=O)Cc3ccccc3)C(=O)N2[C@H]1C(=O)O :: 0.0849
CC(C)(S)[C@@H](N)C(=O)O :: 1.21

Could you tell me normalized DsRed fluorescence for each of these compounds? They are listed below.
1. CN1CCN(CC/C=C2/c3ccccc3Sc3ccc(S(=O)(=O)N(C)C)cc32)CC1
2. O=P(O)(O)C(O)(Cn1ccnc1)P(=O)(O)O [Zoledronic Acid (Zoledronate)]
3. C[n+]1ccccc1/C=N/O
4. Cc1cc(C#N)cc(C)c1Oc1nc(Nc2ccc(C#N)cc2)nc(N)c1Br
5. COc1cc(NC(C)CCCN)c2ncccc2c1 (configuration not stated)
6. CC(C)NCC(O)COc1ccc(CC(N)=O)cc1 (configuration not stated)
7. COc1ccccc1N1CCN(CCCNc2cc(=O)n(C)c(=O)n2C)CC1 [Urapidil hydrochloride]

Ans.
1: 1.9; 2: 0.685; 3: 0.9; 4: 0.589; 5: 0.672; 6: 0.749; 7: 0.557

Could you tell me normalized DsRed fluorescence for each of these compounds? They are listed below.
1. COc1ccc([C@@H]2Sc3ccccc3N(CCN(C)C)C(=O)[C@@H]2OC(C)=O)cc1
2. CCN(CC)C(=O)N1CCN(C)CC1
3. NC[C@H]1CC[C@H](C(=O)O)CC1
4. CC(C(=O)O)c1ccc(N2Cc3ccccc3C2=O)cc1 (configuration not stated)

Ans.
0.612
0.455
0.725
0.501

Could you tell me normalized DsRed fluorescence for each of these compounds? They are listed below.
1. Cc1ncc([N+](=O)[O-])n1CCO
2. COC(=O)[C@@H]1CC2=CC(=O)CC[C@]2(C)[C@@]23O[C@@H]2C[C@@]2(C)[C@@H](CC[C@@]24CCC(=O)O4)[C@H]13
3. COc1cc2c3cc1Oc1cc(ccc1O)C[C@@H]1c4c(cc(OC)c(O)c4Oc4ccc(cc4)C[C@@H]3N(C)CC2)CC[N+]1(C)C
4. COc1cc2/c(=N/c3ccc(Br)cc3F)nc[nH]c2cc1OCC1CCN(C)CC1 [Vandetanib (Zactima)]
5. O=C(O)c1cccnc1

Ans.
1. 0.581
2. 0.645
3. 0.607
4. 1.19
5. 0.614

Could you tell me normalized DsRed fluorescence for each of these compounds? They are listed below.
1. CN(C)CCOC(C)(c1ccccc1)c1ccccn1 (configuration not stated)
2. CNCCC(Oc1ccc(C(F)(F)F)cc1)c1ccccc1 (configuration not stated)
3. CN/C(=N\CCSCc1nc[nH]c1C)NC#N
4. CC1=CC(=O)c2ccccc2C1=O
5. CCC1(C)OC(=O)N(C)C1=O (configuration not stated)
6. CC(=O)N(CC(O)CN(C(C)=O)c1c(I)c(C(=O)NCC(O)CO)c(I)c(C(=O)NCC(O)CO)c1I)c1c(I)c(C(=O)NCC(O)CO)c(I)c(C(=O)NCC(O)CO)c1I (configuration not stated)

Ans.
[0.892, 1.27, 1.05, 0.307, 0.876, 0.83]

Could you tell me normalized DsRed fluorescence for each of these compounds? They are listed below.
1. C[n+]1ccccc1C=NO
2. CCCCCCOC(=O)NC(=N)c1ccc(NCc2nc3cc(C(=O)N(CCC(=O)OCC)c4ccccn4)ccc3n2C)cc1

Ans.
0.637
0.473
